system-name: purified human platelet fibrinogen receptor (GPIIb/IIIa) (Homo sapiens, UniProt P05106+P08514)
Construct: is isolated from human platelet lysates; from tissue
Sequence (P08514 32-887 limits assumed): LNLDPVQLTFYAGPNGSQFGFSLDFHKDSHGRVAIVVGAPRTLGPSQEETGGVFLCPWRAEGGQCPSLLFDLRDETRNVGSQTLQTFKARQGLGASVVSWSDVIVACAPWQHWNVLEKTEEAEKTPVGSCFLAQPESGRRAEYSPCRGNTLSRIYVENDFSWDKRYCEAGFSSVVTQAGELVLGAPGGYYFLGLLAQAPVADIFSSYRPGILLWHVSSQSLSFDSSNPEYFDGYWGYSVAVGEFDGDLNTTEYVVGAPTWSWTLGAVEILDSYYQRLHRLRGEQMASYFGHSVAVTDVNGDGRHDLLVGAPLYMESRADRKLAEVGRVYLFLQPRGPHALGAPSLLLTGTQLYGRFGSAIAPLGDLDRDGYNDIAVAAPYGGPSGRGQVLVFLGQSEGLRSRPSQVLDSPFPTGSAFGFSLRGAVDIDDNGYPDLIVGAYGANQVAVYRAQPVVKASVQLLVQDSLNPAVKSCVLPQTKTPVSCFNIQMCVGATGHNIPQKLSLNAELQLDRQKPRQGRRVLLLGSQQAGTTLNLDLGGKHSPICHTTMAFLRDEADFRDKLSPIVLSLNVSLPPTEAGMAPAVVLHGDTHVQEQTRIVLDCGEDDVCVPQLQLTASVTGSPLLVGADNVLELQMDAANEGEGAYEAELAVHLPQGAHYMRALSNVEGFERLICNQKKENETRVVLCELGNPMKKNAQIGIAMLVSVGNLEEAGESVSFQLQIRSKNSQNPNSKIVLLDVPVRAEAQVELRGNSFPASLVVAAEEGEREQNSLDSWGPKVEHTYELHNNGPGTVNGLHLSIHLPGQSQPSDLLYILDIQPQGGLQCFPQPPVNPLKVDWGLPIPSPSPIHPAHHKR
Sequence (P08514 891-1039 limits assumed): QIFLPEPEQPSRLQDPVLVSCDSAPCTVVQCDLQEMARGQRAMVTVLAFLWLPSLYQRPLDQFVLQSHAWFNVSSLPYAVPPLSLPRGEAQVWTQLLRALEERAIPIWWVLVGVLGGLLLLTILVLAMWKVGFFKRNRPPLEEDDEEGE
Sequence (P05106 27-788): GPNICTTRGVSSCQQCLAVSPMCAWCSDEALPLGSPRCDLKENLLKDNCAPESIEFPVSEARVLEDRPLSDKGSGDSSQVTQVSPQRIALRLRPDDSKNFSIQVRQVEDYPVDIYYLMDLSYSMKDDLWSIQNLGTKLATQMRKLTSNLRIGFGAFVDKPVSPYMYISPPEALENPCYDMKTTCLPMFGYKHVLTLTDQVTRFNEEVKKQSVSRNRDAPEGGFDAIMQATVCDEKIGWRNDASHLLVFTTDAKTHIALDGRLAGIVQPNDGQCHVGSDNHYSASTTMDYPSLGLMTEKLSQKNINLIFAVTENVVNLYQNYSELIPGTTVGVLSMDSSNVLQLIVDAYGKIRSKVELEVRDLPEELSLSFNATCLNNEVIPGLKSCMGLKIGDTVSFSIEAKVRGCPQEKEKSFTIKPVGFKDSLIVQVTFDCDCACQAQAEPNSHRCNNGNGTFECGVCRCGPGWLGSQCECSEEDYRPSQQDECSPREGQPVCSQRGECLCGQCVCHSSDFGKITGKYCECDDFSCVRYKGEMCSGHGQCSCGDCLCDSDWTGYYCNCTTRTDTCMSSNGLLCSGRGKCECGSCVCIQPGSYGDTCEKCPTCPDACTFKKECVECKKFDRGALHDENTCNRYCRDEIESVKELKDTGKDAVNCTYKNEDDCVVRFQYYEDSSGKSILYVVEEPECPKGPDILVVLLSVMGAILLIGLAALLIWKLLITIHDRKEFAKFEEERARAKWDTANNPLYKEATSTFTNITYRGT
experiment: Test (b): GPIIb/IIIa ELISA, inhibition of biotinylated fibrinogen binding
study-conditions: purified human platelet GPIIb/IIIa, ELISA; read-out: Test (b): pIC50 (-log(IC50)), 50% inhibition of biotinylated fibrinogen binding to GPIIb/IIIa (converted)
Where a name gives a salt, the structure may show the parent alone.
measurement-type: IC50 (nM)

compound=CCCCS(=O)(=O)NCc1ccc(NC(=O)C2CCN(c3ccncc3)CC2)cc1 unit_of_measurement=nM qualifier_symbol=> assay_result=100000
compound="O=C(O)COc1ccc2c(=O)c(N3CCN(c4ccncc4)CC3)cn(Cc3ccccc3)c2c1 [Example 49, trifluoroacetate salt]" unit_of_measurement=nM qualifier_symbol== assay_result=6.31
compound="Cc1ccc(S(=O)(=O)NCCC2CCN(C(=O)CN3CCN(c4ccncc4)CC3)CC2)cc1 [Example 223, dihydrochloride]" unit_of_measurement=nM qualifier_symbol== assay_result=1580
compound=COC(=O)CCc1ccc(OCC2CCN(c3ccncc3)CC2)cc1 unit_of_measurement=nM qualifier_symbol== assay_result=50100
compound=O=C(O)C[C@@H](NC(=O)c1ccc(N2CCN(c3ccncc3)CC2)cc1)C(=O)NCCc1ccccc1 unit_of_measurement=nM qualifier_symbol== assay_result=251
compound=CCCCS(=O)(=O)NCc1ccc(C(=O)CN2CCN(c3ccncc3)CC2)cc1 unit_of_measurement=nM qualifier_symbol== assay_result=3980
compound=CC(C)(C)OC(=O)COC1CCN(C(=O)CN2CCN(c3ccncc3)CC2)CC1 unit_of_measurement=nM qualifier_symbol== assay_result=39800
